Tested on: WT ERK2
Experiment: Y2H D-site library screen, WT ERK2
Assay type: cell-based, rat
Parameters: key: ES = slope of ln(Ft/F0) vs number of yeast population doublings
Details: mutant ES is the combined average ES from the D319N and E320K screens
Reported WT ES - mutant ES values for the following sequences.
reported.endpoint: WT ES - mutant ES

RRRGRPPKRIHISQ [BAZ1A, D-site 14-mer in ELK1 Y2H prey] ... 0.150
HLSRHKIIHIGIHT [ZNF493, D-site 14-mer in ELK1 Y2H prey] ... 0.221
IRARRGLPRLAVSD [ISG20, D-site 14-mer in ELK1 Y2H prey] ... 0.761
TRHERNYTKVNFCK [ZNF675, D-site 14-mer in ELK1 Y2H prey] ... 0.359
ILLRRSLEAIELGL [KLC2, D-site 14-mer in ELK1 Y2H prey] ... 0.282
RRMRRAGQALKLPS [HAS3, D-site 14-mer in ELK1 Y2H prey] ... 0.310
RSKLRKPKPVPLRK [TACC1, D-site 14-mer in ELK1 Y2H prey] ... 0.162
LWTRRRSERIFLHD [TNRC18, D-site 14-mer in ELK1 Y2H prey] ... 0.332
